target: Dihydroorotate dehydrogenase (quinone), mitochondrial (Plasmodium falciparum (isolate 3D7)) (UniProt Q08210); assay: PfDHODH enzyme inhibitors, primary screen, biochemical, C-terminal His tag, absorbance 600 nm (AID 1175); conditions: DCIP absorbance 600 nm, higher = more signal, called active from +8 up or from −8 down;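 note: recombinant parasite enzyme with a five histidine tag at its C terminus; test concentration not given here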
Sequence (Q08210 whole entry, looked up): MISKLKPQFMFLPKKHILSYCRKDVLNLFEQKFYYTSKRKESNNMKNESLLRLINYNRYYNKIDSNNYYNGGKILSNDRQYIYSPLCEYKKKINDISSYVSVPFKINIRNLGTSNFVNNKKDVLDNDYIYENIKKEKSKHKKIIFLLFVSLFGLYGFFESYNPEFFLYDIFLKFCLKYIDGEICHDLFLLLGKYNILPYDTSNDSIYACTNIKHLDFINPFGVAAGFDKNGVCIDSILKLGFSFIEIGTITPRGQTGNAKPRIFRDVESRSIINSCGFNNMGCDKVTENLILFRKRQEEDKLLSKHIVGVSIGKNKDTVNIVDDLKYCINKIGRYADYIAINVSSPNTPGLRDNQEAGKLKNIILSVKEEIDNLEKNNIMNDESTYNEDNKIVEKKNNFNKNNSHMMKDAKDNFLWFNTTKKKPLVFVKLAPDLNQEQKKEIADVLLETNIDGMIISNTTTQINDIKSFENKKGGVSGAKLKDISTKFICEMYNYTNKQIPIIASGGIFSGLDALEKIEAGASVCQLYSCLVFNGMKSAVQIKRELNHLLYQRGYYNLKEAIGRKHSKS
Each entry gets not met if its composite z-score stays under -0.09, and met if its composite z-score is -0.09 or above.

• NC(=O)NCC#Cc1ccc2c(c1)[C@]1(C(=O)N2)[C@H](C(=O)NC[C@H](O)c2ccccc2)[C@H]2C(=O)O[C@H](c3ccccc3)[C@H](c3ccccc3)N2[C@@H]1c1ccc(OCCO)cc1 = not met
• O=C1O[C@@H](c2ccccc2)[C@@H](c2ccccc2)N2[C@@H](c3ccc(O)cc3)[C@]3(C(=O)Nc4ccc(C#CC5=CCCCC5)cc43)[C@@H](C(=O)NC[C@H](O)c3ccccc3)[C@H]12 = not met
• NCCCCCCNC(=O)[C@@H]1C[C@@H]2C(=O)N[C@@H](CCCCN)C(=O)N2[C@@H]1c1cccc(OCCO)c1 = met
• CCCCO[C@H]1C[C@H]2C(I)=C[C@@H]1C(=O)[C@]21CO1 = met
• COCCCNC(=O)[C@]1(CCS(=O)(=O)c2ccccc2)N=C(c2ccc(OCCCO)cc2)O[C@@H]1c1ccccc1N=[N+]=[N-] = met
• C=CCC(OC(C)=O)[C@@H]1[C@@H](N(Cc2ccc(-c3ccccc3)cc2)C(=O)Cc2ccc(F)cc2)c2cc(OCCCO)ccc2N1C(=O)Cc1ccc(OC)cc1 (some centres not stated) = not met
• CC(C)[Si](C#C[Si](C(C)C)(C(C)C)C(C)C)(O[C@H](C)c1cn([C@H](CO)Cc2ccccc2)nn1)C(C)C = not met

Origin of the recorded values: PubChem BioAssay
